tested target: Ubiquitin carboxyl-terminal hydrolase 17-like protein 5 (Homo sapiens)
run description: ubiquitin-specific protease 17 DUB inhibitors, concentration-effect assay, cell-free, verification of initial screening actives (AID 1645864)
settings: purified USP17, ubiquitin-rhodamine cleavage fluorescence, 3 h
Calls of active or inactive are those of the source.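 Rule for the calls: active = maximal inhibition of USP17 at or above 30% in the confirmation dose-response, a value not among the printed readouts; inactive = the rest.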
Choose the fitting class; nothing outside active, inactive is accepted.

>  <compound>
COc1ccc(C(=O)Nc2ccc3c(c2)Sc2ncccc2C(=O)N3C)cn1

>  <class assignment>
inactive

$$$$
>  <compound>
Cc1cc(N2CCN(c3ncccn3)CC2)nc2ccc(NC(=O)/C=C/c3ccccc3Cl)cc12

>  <class assignment>
active

$$$$
>  <compound>
CC(=O)c1ccc(NC(=O)C2CCN(c3cncnc3N3CCCC3)CC2)cc1

>  <class assignment>
inactive

$$$$
>  <compound>
CC(C)NS(=O)(=O)c1ccc(OCC(=O)N2CCC(Cc3ccccc3)CC2)cc1

>  <class assignment>
inactive

$$$$
>  <compound>
O=C(c1ccc2occc2c1)N1CCC(S(=O)(=O)c2ccc(-c3ccco3)cc2)CC1

>  <class assignment>
inactive

$$$$
>  <compound>
CCc1ccc(-n2c(=O)c3ccccc3n(CC(=O)NCCC3=CCCCC3)c2=O)cc1

>  <class assignment>
active

$$$$
>  <compound>
COc1ccc(C2C(C(=O)C(C)(C)C)N3c4ccccc4C=CC3C23C(=O)c2ccccc2C3=O)c(OC)c1 (stereo not given)

>  <class assignment>
inactive

$$$$
>  <compound>
c1ccc(CN2CCN(c3nc4ccccc4n4nnnc34)CC2)cc1

>  <class assignment>
inactive

$$$$
>  <compound>
COc1ccc(NC(=O)CSc2nc(N)c3c4c(sc3n2)COC(C)(C)C4)cc1

>  <class assignment>
active

$$$$

Consider the record given below.
Ask: Recorded test outcome, item O=C(Nc1cc(Cl)cc(Cl)c1)c1csnn1
Reply: active

* * *

tested target: Ubiquitin carboxyl-terminal hydrolase 17-like protein 5 (Homo sapiens)
run description: ubiquitin-specific protease 17 DUB inhibitors, concentration-effect assay, cell-free, verification of initial screening actives (AID 1645864)
settings: purified USP17, ubiquitin-rhodamine cleavage fluorescence, 3 h
Calls of active or inactive are those of the source.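 How the source made its calls: active means maximal inhibition of USP17 at or above 30% in the confirmation dose-response, a value not among the printed readouts; inactive means the rest.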
Choose the fitting class; nothing outside 1 (active), -1 (inactive) is accepted.

Worked examples follow.
>  <compound>
N#Cc1cccc(NC(=O)Nc2cccn(Cc3ccccc3F)c2=O)c1

>  <class assignment>
1

$$$$
>  <compound>
COc1ccc(-n2c(SCC(=O)c3ccc(F)cc3)nnc2-c2cccnc2)cc1

>  <class assignment>
1

$$$$
>  <compound>
Cc1ccccc1OCCSc1nc2ccccc2n1CC(=O)NC1CC1

>  <class assignment>
1

$$$$
>  <compound>
CC(C)N1C[C@@H]2C[C@H](NS(=O)(=O)c3cccc(C#N)c3)CN2Cc2ccccc21

>  <class assignment>
-1

$$$$
>  <compound>
Cc1cc(NC(=O)c2[nH]nc3c2CCc2ccccc2-3)no1

>  <class assignment>
1

$$$$

Ask: Recorded test outcome, item CCN(Cc1ccccc1)S(=O)(=O)c1ccc(C(=O)Nc2ccc3c(c2)OCCO3)cc1
Reply: -1

Ask: Recorded test outcome, item COc1ccc(NC(=O)c2sc(N3CCOCC3)nc2-c2ccccc2)c(OC)c1
Reply: 1

Ask: Recorded test outcome, item CC(=O)c1ccc(Cc2ncc(C(F)(F)F)cc2Cl)s1
Reply: -1

* * *

tested target: Ubiquitin carboxyl-terminal hydrolase 17-like protein 5 (Homo sapiens)
run description: ubiquitin-specific protease 17 DUB inhibitors, concentration-effect assay, cell-free, verification of initial screening actives (AID 1645864)
settings: purified USP17, ubiquitin-rhodamine cleavage fluorescence, 3 h
Activity calls are given as the source filed them.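 Rule for the calls: active = maximal inhibition of USP17 at or above 30% in the confirmation dose-response, a value not among the printed readouts; inactive = the rest.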
observable: IC50

>  <molecule>
O=C(CCc1c[nH]c2ccccc12)Nc1ccc(N2CCOCC2)cc1

>  <IC50>
30.5 µM

$$$$

Ask: Supply IC50 value. Item: COCCNC(=O)c1cc(-c2cn(-c3ccccn3)c(C)n2)n2ccccc12
Reply: > 50 µM (inactive)

Ask: Supply IC50 value. Item: Cc1cc(C)n(-c2ccc(C(=O)NCc3ccc(F)cc3)cn2)n1
Reply: 33.9 µM

Ask: Supply IC50 value. Item: COc1ccc(NC(=O)c2[nH]nc3c2COc2ccccc2-3)c(OC)c1
Reply: 5.5 µM

Ask: Supply IC50 value. Item: CCOc1ccc(NC(=O)Cn2c(=O)n(CCC(=O)NCc3ccccc3OC)c(=O)c3ccccc32)cc1
Reply: 4.35 µM

* * *

tested target: Ubiquitin carboxyl-terminal hydrolase 17-like protein 5 (Homo sapiens) (UniProt A8MUK1)
Sequence (A8MUK1 whole entry, looked up): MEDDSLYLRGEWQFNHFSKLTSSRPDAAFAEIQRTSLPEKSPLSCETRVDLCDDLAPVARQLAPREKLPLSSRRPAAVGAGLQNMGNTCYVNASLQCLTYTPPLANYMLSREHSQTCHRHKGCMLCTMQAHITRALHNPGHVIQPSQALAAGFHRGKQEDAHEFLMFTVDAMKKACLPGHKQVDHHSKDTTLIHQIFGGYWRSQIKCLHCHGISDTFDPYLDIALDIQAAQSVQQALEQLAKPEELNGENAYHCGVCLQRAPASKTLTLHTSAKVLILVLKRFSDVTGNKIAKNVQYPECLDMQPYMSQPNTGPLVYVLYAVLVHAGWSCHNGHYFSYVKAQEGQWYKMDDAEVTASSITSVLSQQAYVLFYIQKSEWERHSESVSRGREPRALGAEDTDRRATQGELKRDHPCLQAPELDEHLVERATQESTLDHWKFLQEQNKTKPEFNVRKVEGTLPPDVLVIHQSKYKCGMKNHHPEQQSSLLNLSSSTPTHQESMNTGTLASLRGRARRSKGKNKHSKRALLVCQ
run description: ubiquitin-specific protease 17 DUB inhibitors, concentration-effect assay, cell-free, verification of initial screening actives (AID 1645864)
settings: purified USP17, ubiquitin-rhodamine cleavage fluorescence, 3 h
Active and inactive are the calls of the source.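 The calls were made as follows: active = maximal inhibition of USP17 at or above 30% in the confirmation dose-response, a value not among the printed readouts; inactive = the rest.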
Choose the fitting class; nothing outside Yes (active), No (inactive) is accepted.

Worked examples follow.
>  <compound>
COCCNC(=O)c1ccn(-c2ccc3ccc(-c4cnn(C)c4)cn23)n1

>  <tested target>
Ubiquitin carboxyl-terminal hydrolase 17-like protein 5 (Homo sapiens) (UniProt A8MUK1)

>  <class assignment>
No

$$$$
>  <compound>
COC(=O)COc1ccc(/C=N/NC(=O)c2ccc(CN3CCc4ccccc4C3)cc2)cc1

>  <tested target>
Ubiquitin carboxyl-terminal hydrolase 17-like protein 5 (Homo sapiens) (UniProt A8MUK1)

>  <class assignment>
Yes

$$$$
>  <compound>
COc1ccc(-c2cc(C(=O)NC3CCCCCC3)[nH]n2)cc1S(=O)(=O)N(C)C

>  <tested target>
Ubiquitin carboxyl-terminal hydrolase 17-like protein 5 (Homo sapiens) (UniProt A8MUK1)

>  <class assignment>
Yes

$$$$
>  <compound>
O=C1CC(c2cc3c(cc2Br)OCO3)c2cc3c(cc2N1)OCCO3 (stereo not given)

>  <tested target>
Ubiquitin carboxyl-terminal hydrolase 17-like protein 5 (Homo sapiens) (UniProt A8MUK1)

>  <class assignment>
Yes

$$$$
>  <compound>
CCN(CC)C(=O)c1sc(NC(=O)/C=C/c2c(F)cccc2Cl)c(C#N)c1C

>  <tested target>
Ubiquitin carboxyl-terminal hydrolase 17-like protein 5 (Homo sapiens) (UniProt A8MUK1)

>  <class assignment>
Yes

$$$$

Ask: Recorded test outcome, item CCC(=O)Nc1ccccc1-c1nc2ccccc2n(CC(=O)Nc2cc(OC)ccc2OC)c1=O
Reply: Yes

Ask: Recorded test outcome, item COc1ccc(NC(=O)c2ccccc2OCC(=O)Nc2ccccc2C(F)(F)F)c(C)c1
Reply: Yes

Ask: Recorded test outcome, item COc1ccc(CC(=O)Nc2cccc(-c3nc4ncccc4o3)c2)cc1OC
Reply: No

Ask: Recorded test outcome, item COc1ccc(NC(=O)c2nnc(C(=O)NCCN3CCCCCC3)s2)cc1
Reply: Yes

Ask: Recorded test outcome, item CCc1ccccc1NC(=O)COc1ccccc1-c1nnc(-c2ccccc2)o1
Reply: Yes

* * *

tested target: Ubiquitin carboxyl-terminal hydrolase 17-like protein 5 (Homo sapiens)
run description: ubiquitin-specific protease 17 DUB inhibitors, concentration-effect assay, cell-free, verification of initial screening actives (AID 1645864)
settings: purified USP17, ubiquitin-rhodamine cleavage fluorescence, 3 h
Calls of active or inactive are those of the source.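 Rule for the calls: active = maximal inhibition of USP17 at or above 30% in the confirmation dose-response, a value not among the printed readouts; inactive = the rest.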
Choose the fitting class; nothing outside T for active, F for inactive is accepted.

>  <compound>
COc1cccc(NC(=O)c2cnc3c(c2)c(=O)n(C)c(=O)n3C)c1

>  <tested target>
Ubiquitin carboxyl-terminal hydrolase 17-like protein 5 (Homo sapiens)

>  <class assignment>
T

$$$$

Ask: Recorded test outcome, item CCC(=O)Nc1cccnc1-c1ccc(C(=O)Nc2cccc(OC)c2)cc1
Reply: F

Ask: Recorded test outcome, item O=C(/C=C/C=C/C=C/C1CCCCC1)NC1=C[C@@](O)(/C=C/C=C/C=C/C(=O)NC2=C(O)CCC2=O)[C@@H]2O[C@@H]2C1=O
Reply: T

Ask: Recorded test outcome, item COc1ccc(NC(=O)CC(=O)c2ccc([N+](=O)[O-])cc2)cc1S(=O)(=O)Nc1ccc(Br)cc1
Reply: T

Ask: Recorded test outcome, item COc1ccc(-c2nc(CNC(=O)COc3ccc(C)cc3)cs2)cc1
Reply: T

Ask: Recorded test outcome, item O=C(Oc1ccc(-c2cnc3ccccc3n2)cc1)c1ccc(F)cc1
Reply: T

* * *

tested target: Ubiquitin carboxyl-terminal hydrolase 17-like protein 5 (Homo sapiens) (UniProt A8MUK1)
run description: ubiquitin-specific protease 17 DUB inhibitors, concentration-effect assay, cell-free, verification of initial screening actives (AID 1645864)
settings: purified USP17, ubiquitin-rhodamine cleavage fluorescence, 3 h
The source made the active and inactive calls.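 Rule for the calls: active = maximal inhibition of USP17 at or above 30% in the confirmation dose-response, a value not among the printed readouts; inactive = the rest.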
Choose the fitting class; nothing outside 1 (yes) (active), 0 (no) (inactive) is accepted.

Worked examples follow.
>  <compound>
CO[C@H]1/C=C/OC2(C)Oc3c(C)c(O)c4c(c3C2=O)C2(C=C(NC(=O)/C(C)=C\C=C\[C@H](C)[C@H](O)[C@@H](C)[C@@H](O)[C@@H](C)[C@H](OC(C)=O)C1C)C4=O)OCC(=O)O2 (some centres undefined)

>  <class assignment>
1 (yes)

$$$$
>  <compound>
O=c1[nH]c2ccccc2cc1CN(Cc1ccco1)S(=O)(=O)c1ccc(F)cc1

>  <class assignment>
0 (no)

$$$$
>  <compound>
COc1cccc(-n2nnc(C(=O)Nc3ccc(C)c(C)c3)c2C)c1

>  <class assignment>
0 (no)

$$$$
>  <compound>
O=C1C=CC(O)C2C1CC13SSC4(CC5C(=O)C=CC(O)C5N4C1=O)C(=O)N23 (centres undefined)

>  <class assignment>
0 (no)

$$$$
>  <compound>
CCCNc1cc(-c2ccccc2)nc2nc(-c3cccnc3)nn12

>  <class assignment>
0 (no)

$$$$

Ask: Recorded test outcome, item O=C(CN1C(=O)c2ccccc2Sc2ccc(C(=O)N3CCCC3)cc21)Nc1ccccc1Cl
Reply: 1 (yes)

Ask: Recorded test outcome, item CC(C)OC(=O)c1cc2c(ccn2C)n1CC(=O)N1CCN(C(=O)c2ccco2)CC1
Reply: 0 (no)

Ask: Recorded test outcome, item COc1cc(Cn2cnc3c([nH]c4ccc(Br)cc43)c2=O)cc(OC)c1
Reply: 1 (yes)

Ask: Recorded test outcome, item Cc1cc(=O)n(CC(=O)Nc2ccccc2F)c(Nc2ccc(F)cc2)n1
Reply: 1 (yes)
